- STUDY TARGET: 5-hydroxytryptamine receptor 1A (Rattus norvegicus)
- Sequence (P19327 whole entry): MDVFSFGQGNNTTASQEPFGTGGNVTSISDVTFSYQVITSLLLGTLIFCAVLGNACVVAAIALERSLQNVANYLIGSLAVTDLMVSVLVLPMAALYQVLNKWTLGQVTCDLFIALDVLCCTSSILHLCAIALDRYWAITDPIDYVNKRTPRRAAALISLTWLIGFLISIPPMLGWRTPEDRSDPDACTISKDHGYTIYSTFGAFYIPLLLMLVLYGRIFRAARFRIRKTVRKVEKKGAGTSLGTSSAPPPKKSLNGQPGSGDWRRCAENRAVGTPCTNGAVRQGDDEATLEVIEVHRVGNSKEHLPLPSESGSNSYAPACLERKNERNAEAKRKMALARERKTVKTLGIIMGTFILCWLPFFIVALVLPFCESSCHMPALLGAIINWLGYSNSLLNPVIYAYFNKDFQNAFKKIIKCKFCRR
- Assay type: cell membranes, CHO-K1, Membrane
- TEST SETTINGS: read-out: Ki
pKi: −log10 of the molar value.
The label depends only on pKi: MET if it is at least 6, NOT MET if it is smaller.

>  <COMPOUND>
CC(C)[C@@]1(NC(=O)[C@@H]2C[C@@H]3c4cccc5[nH]cc(c45)C[C@H]3N(C)C2)O[C@@]2(O)[C@@H]3CCCN3C(=O)[C@H](Cc3ccccc3)N2C1=O.CS(=O)(=O)O [DIHYDROERGOCRISTINE MESYLATE]

>  <LABEL>
MET

$$$$
>  <COMPOUND>
CC/C(=C(\c1ccccc1)c1ccc(OCCN(C)C)cc1)c1ccccc1

>  <LABEL>
NOT MET

$$$$
>  <COMPOUND>
CC(C)(C)NC(=O)[C@@H]1C[C@@H]2CCCC[C@@H]2CN1C[C@@H](O)[C@H](Cc1ccccc1)NC(=O)[C@H](CC(N)=O)NC(=O)c1ccc2ccccc2n1

>  <LABEL>
NOT MET

$$$$
>  <COMPOUND>
CN(C)CCCN1c2ccccc2Sc2ccc(Cl)cc21

>  <LABEL>
NOT MET

$$$$
>  <COMPOUND>
COc1nc(C)nc(Cl)c1NC1=NCCN1

>  <LABEL>
MET

$$$$
>  <COMPOUND>
Clc1cccc(Cl)c1NC1=NCCN1

>  <LABEL>
NOT MET

$$$$
>  <COMPOUND>
CC(C)[C@H]1C(=O)N2CCC[C@H]2[C@]2(O)O[C@](NC(=O)[C@@H]3C=C4c5cccc6[nH]cc(c56)C[C@H]4N(C)C3)(C(C)C)C(=O)N12

>  <LABEL>
MET

$$$$

Origin of values: ChEMBL document CHEMBL1909046
